MEASURED TARGET: full-length human PLD1 (Homo sapiens (Human), UniProt Q13393)
Sequence (Q13393 other isoform, or with tags, fused parts or gaps): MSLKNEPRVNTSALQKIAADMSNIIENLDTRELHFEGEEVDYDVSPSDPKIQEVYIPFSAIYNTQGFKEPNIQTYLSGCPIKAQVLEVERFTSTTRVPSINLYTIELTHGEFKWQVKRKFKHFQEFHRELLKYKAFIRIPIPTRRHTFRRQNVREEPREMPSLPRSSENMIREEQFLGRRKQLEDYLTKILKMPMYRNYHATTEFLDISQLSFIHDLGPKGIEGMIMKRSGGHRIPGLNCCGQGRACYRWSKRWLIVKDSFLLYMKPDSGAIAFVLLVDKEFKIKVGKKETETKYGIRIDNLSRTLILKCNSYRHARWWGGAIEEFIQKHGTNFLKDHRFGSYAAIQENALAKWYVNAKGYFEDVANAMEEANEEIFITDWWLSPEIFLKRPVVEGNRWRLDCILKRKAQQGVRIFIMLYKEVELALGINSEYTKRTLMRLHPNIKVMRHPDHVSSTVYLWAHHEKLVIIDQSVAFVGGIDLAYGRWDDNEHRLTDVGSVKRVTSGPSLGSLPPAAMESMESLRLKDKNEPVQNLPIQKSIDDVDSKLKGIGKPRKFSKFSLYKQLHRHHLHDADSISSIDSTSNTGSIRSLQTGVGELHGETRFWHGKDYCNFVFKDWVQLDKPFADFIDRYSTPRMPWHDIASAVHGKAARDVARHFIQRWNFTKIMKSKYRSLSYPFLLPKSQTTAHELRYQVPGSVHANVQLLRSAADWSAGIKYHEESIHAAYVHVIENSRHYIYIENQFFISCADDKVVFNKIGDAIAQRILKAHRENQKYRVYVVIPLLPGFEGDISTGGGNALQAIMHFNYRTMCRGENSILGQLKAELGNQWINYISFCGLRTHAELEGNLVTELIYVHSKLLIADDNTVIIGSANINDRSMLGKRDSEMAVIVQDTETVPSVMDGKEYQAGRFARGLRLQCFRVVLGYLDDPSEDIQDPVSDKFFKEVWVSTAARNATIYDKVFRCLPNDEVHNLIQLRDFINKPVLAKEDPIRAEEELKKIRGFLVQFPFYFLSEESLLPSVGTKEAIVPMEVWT
ASSAY: Evaluation of human PLD1 enzyme inhibitory activity (Amplex Red / choline oxidase fluorescence)
Format: biochemical
CONDITIONS: full-length human PLD1 enzyme; read-out: PLD1 IC50
MEASURED METRIC: IC50 (nM)
Unit nM implied. Number only.

Some molecules with known IC50 results, for comparison:
- C[C@@H](CN1CCC2(CC1)OC(=O)NN=C2c1ccc(C#N)cc1Br)NC(=O)c1cncn1C: 731
- C[C@@H](CN1CCC2(CC1)OC(=O)NN=C2c1cc(C#N)ccc1Br)NC(=O)C[C@@H](O)C(F)(F)F: 1250
- C[C@@H](CN1CCC2(CC1)OC(=O)NN=C2c1ccc(F)cc1Br)NC(=O)c1cnn(C)c1: 29
- Cc1cc(C(=O)N[C@@H](C)CN2CCC3(CC2)OC(=O)NN=C3c2cc(C#N)ccc2Br)[nH]n1 [Example 312]: 29

Exam item: Which IC50 value is on record for CNC(=O)C(=O)N[C@@H](C)C[C@H]1CC[C@]2(CC1)OC(=O)NN=C2c1cc(N2CCOCC2)ccc1C ?
Marked response: 27

Exam item: Then what about the molecule C[C@@H](CN1CCC2(CC1)OC(=O)NN=C2c1cc(C#N)ccc1Br)NC(=O)c1cn(C)cn1 ?
Marked response: 37

Exam item: Then what about the molecule CNC(=O)C(=O)N[C@@H](C)CN1CCC2(CC1)OC(=O)NN=C2c1cc(C(=O)N(C)C)ccc1Br ?
Marked response: 60
